Please respond with reported pKd for every item in the list.
Target: T1, NPNA4 peptide (Ac-[residues removed]-NH2) (Plasmodium falciparum (synthetic CSP …)
T1 construct: source: synthetic peptide, bought: Innopep Inc
Assay: ITC; peptide in the syringe, Fab (~10 uM) in the cell; DPBS; 25 C; single-site binding model; triplicate; apparent affinity
Conditions: both partners purified
Numbers only, as −log10 of the molar value.

| binder | pKd |
| --- | --- |
| Fab356 (Fab, V domains shown, also called mAb356; source: ExpiCHO cells, purified (HiTrap Protein G, SEC)) VH: VQLVESGGGVVQPGRSLRLSCAASGFTFRNFGMHWVRQTPGKGLEWVAVIWHDGSNKFYADSVEGRFTISRDNSKNMIYLQMNSLRVEDTAIYYCARDSLFYDHDNSGYYGYWGQGTLVTVSS VL: QIVMTQSPATVSVSPGERATLSCRASRSVTSKLAWYQQKPGQAPRLLIYGASTRATGIPARFSGSGSGTEFTLTISSLQSEDFAVYFCQQYNNGFTFGPGTKVDFK | 7.09 |

List reported pKd for each of these binders:
1. Fab317 (Fab, V domains shown, also called mAb317; source: ExpiCHO cells, purified (HiTrap Protein G, SEC)) VH: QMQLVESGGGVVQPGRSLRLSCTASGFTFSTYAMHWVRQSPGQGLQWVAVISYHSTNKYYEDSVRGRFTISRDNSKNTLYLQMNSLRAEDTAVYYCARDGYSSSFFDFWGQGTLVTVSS VL: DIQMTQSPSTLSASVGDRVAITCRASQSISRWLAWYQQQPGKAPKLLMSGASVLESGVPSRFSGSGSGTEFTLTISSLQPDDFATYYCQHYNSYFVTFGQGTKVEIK
2. Fab239 (Fab, V domains shown, also called mAb239; source: ExpiCHO cells, purified (HiTrap Protein G, SEC)) VH: QVQLVESGGGVVQPGRSLRLSCAASRLTFRNFGMHWVRQTPGKGLEWVAVIWHDGSNKFYADSVEGRFTISRDNSKNTLYLQMNSLRDEDTAIYYCAKDWGGASDRVFDYWGRGTLVIVSS VL: DIQMTQSPSTLSASVGDRVTITCRASQSVSTSLAWYQQKPGKAPNLLIYQASTLYRGVPSRFSGSGSGTEFTLTIGSLQPDDFATYYCQHYNSYSRITFGQGTRLEIK

Result:
1. 7.15
2. 7.70
